Hey, just so you know, these numbers are from PubChem BioAssay (NCI).

Test system: CCRF-CEM leukemia
Test: NCI tumour cell line growth inhibition, 48 h; in the data active = GI50 below about 0.43 µM; inactive = the rest
Allowed answers: active, inactive

Q: Which outcome was assigned to "COc1cc(/C=N\NC(=O)CN2CCN(c3cc4c(cc3F)c(=O)c(C(=O)N/N=C/c3cc(OC)c(OC)c(OC)c3)cn4C3CC3)CC2)cc(OC)c1OC" in this test?
Ans: active

Q: Entry "CCC(=O)[C@H](C)[C@@H](OC(=O)[C@H](C)CC)[C@H](C)[C@H]1OC(CC)=C(C)C(=O)[C@@H]1C" : call = ?
Ans: inactive

Q: Status in this test for "CCN1CCN(Cc2ccc(NC(=O)c3cccc(C#Cc4cccc5[nH]nc(N)c45)c3)cc2C(F)(F)F)CC1" ?
Ans: inactive

Q: Write down the call the test reported for this compound. Item: CC(=O)OC1OC([C@@H]2c3cccc(O)c3C(=O)c3c(O)cc(C)cc32)C(O)C(O)C1O (stereo not given in full)
Ans: active

Q: // param item: "CC(=O)[CH-]C(=O)c1ccccc1.CC(=O)[CH-]C(=O)c1ccccc1.CN(C)c1ccc([O-])cc1.CN(C)c1ccc([O-])cc1.Cl.[Ti+4]" ; yields the recorded call
Ans: inactive

Q: I'd appreciate the recorded outcome for "Cc1ccnc2c1ccc1c(C)ccnc12" from this test.
Ans: active

Q: Each compound tested received a call. Report the one for C=C(C)C(OC)C(O)CC1(C)CC(O)CC(C)(C2CCC3OC(C4(C)CCC(Br)C(C)(C)O4)CCC3(C)O2)O1 (stereo not given) .
Ans: inactive

Q: So what was the verdict on "NC(N)=NS(=O)(=O)c1ccc(Nc2c3ccccc3nc3c(C(=O)NCCO)cccc23)cc1" in this test?
Ans: inactive

Q: Identify the outcome logged in this assay for the compound shown: "Cc1ccc(CN2CCC(C(=O)Nc3ccc(-c4cc5ccccc5[nH]4)cc3)CC2)o1"
Ans: inactive

Q: Please state the recorded outcome for this compound: "O=C(Nc1ccccc1)c1c(O)[nH]c(=S)[nH]c1=O"
Ans: inactive

Q: Check the results log: what was the call for CC1CCC(n2c3cnccc3c3cnc(Nc4ccc5c(n4)CCN(C(=O)CO)C5)nc32)CC1 (stereo not given) ?
Ans: inactive

Q: Would you mind telling me which call this test gave "COc1cccc(-c2cc(-c3cccc(NS(C)(=O)=O)c3)nc(N)c2C#N)c1O" ?
Ans: active
